Could you please report measured OD490 Well 1 for the items listed next?
# Tested on: Caco-2 cell line
# PROTOCOL DESCRIPTION: Cytotoxicity MTS assay, Caco-2 cell line
# Assay type: cell-based
# COND: 1μM; first assay; Caco-2 cell line
Response field accepts a number only; no unit should be typed.

Ask: # lookup: OD490 Well 1 of CCOC(=O)c1[nH]c(C2NC(=O)NC(C)=C2C(=O)Nc2ccc(Cl)cc2)c(C(=O)OCC)c1C (stereo not drawn) [D7]
Result: 0.5419

Ask: Which OD490 Well 1 value is on record for CCOC(=O)c1c(C2NC(=O)NC(C)=C2C(=O)Nc2ccccc2C)[nH]c(C(=O)OC)c1C (stereo not drawn) [D2] ?
Result: 0.5288

Ask: May I ask what OD490 Well 1 has been recorded for CCOC(=O)c1c(C2NC(=O)NC(C)=C2C(=O)Nc2ccccc2)[nH]c(C(=O)OC)c1C (stereo not drawn) [D10] ?
Result: 0.5182

Ask: Entry under review: CCOC(=O)c1[nH]c(C2NC(=S)NC(C)=C2C(=O)OC)c(C(=O)OCC)c1C (stereo not drawn) [D12] . Reported OD490 Well 1?
Result: 0.4703

Ask: I am curious: what OD490 Well 1 value has been reported for CCOC(=O)c1c(C2NC(=O)NC(C)=C2C(=O)Nc2ccccc2OC)[nH]c(C(=O)OC)c1C (stereo not drawn) [D1] ?
Result: 0.6046

Ask: Item CCOC(=O)c1[nH]c(C2NC(=O)NC(C)=C2C(=O)Nc2ccccc2C)c(C(=O)OC)c1C (stereo not drawn) [D4] has what recorded OD490 Well 1?
Result: 0.5948

Ask: GET /values?readout=OD490 Well 1&item= CCOc1ccccc1C1NC(=S)NC(C)=C1C(=O)Nc1ccc(Cl)cc1 (stereo not drawn) [C9]
Result: 0.6594

Ask: Quick one: OD490 Well 1 of CCOC(=O)C1=C(C)NC(=S)NC1c1cccc(O)c1 (stereo not drawn) [Monastrol, monastrol, reference compound] ?
Result: 0.6697

Ask: Could you tell me which OD490 Well 1 is on file for CCOC(=O)c1[nH]c(C2NC(=O)NC(C)=C2C(=O)Nc2ccccc2OC)c(C(=O)OC)c1C (stereo not drawn) [D3] ?
Result: 0.6405

----------
# Test system: Hela cell line
# PROTOCOL DESCRIPTION: Cytotoxicity MTS assay, Hela cell line;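 also: blank control wells received 0.025% DMSO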
# Format: cell-based
# COND: Hela cell line, MTS, 50μM, second assay
Kindly state OD490 value, Mean for each of the entries shown.
Answer field: number only, no words.

Ask: I'd like to know its OD490 value, Mean. The compound in question is CCOC(=O)c1[nH]c(C2NC(=O)NC(C)=C2C(=O)Nc2ccc(Cl)cc2)c(C(=O)OCC)c1C (stereo not drawn)
Result: 2.2166

Ask: # input compound: CCOC(=O)c1[nH]c(C2NC(=O)NC(C)=C2C(=O)Nc2ccccc2C)c(C(=O)OC)c1C (stereo not drawn) ; wanted: its OD490 value, Mean
Result: 2.4794

Ask: Name the recorded OD490 value, Mean for CCOC(=O)c1c(C2NC(=O)NC(C)=C2C(=O)Nc2ccccc2C)[nH]c(C(=O)OC)c1C (stereo not drawn) [D2] .
Result: 2.5211

----------
# System: T24 cell line
# PROTOCOL DESCRIPTION: Cytotoxicity MTS assay, T24 cell line;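 also: blank control wells received 0.025% DMSO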
# Type: cell-based
# COND: T24 cell line, 25μM, second assay
MEASURED PARAMETER: OD490 Well 3
Number only, please.

Ask: Look at this compound and give its reported OD490 Well 3. CCOC(=O)C1=C(C)NC(=S)NC1c1cccc(O)c1 (centres unmarked) [Monastrol, monastrol, reference compound]
Result: 1.5874

Ask: Would you kindly share the measured OD490 Well 3 for CCOc1ccccc1C1NC(=S)NC(C)=C1C(=O)Nc1ccc(Cl)cc1 (centres unmarked) ?
Result: 1.5214

Ask: Endpoint output: OD490 Well 3 of CCOC(=O)c1[nH]c(C2NC(=O)NC(C)=C2C(=O)Nc2ccccc2C)c(C(=O)OC)c1C (centres unmarked) . Value?
Result: 1.5954

Ask: # query: OD490 Well 3 of entry CCOC(=O)c1c(C2NC(=O)NC(C)=C2C(=O)Nc2ccccc2OC)[nH]c(C(=O)OC)c1C (centres unmarked) [D1]
Result: 1.7741

Ask: Look at this compound and give its reported OD490 Well 3. CCOC(=O)c1c(C2NC(=O)NC(C)=C2C(=O)Nc2ccccc2C)[nH]c(C(=O)OC)c1C (centres unmarked) [D2]
Result: 1.6982

----------
# System: T24 cell line
# PROTOCOL DESCRIPTION: Cytotoxicity MTS assay, T24 cell line;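 also: blank control wells received 0.025% DMSO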
# Type: cell-based
# COND: T24 cell line, 0.5μM, first assay
Give OD490 Mean for every item shown.
No unit in the answer, only the number.

Ask: Fill blank: measured OD490 Mean of the molecule CCOC(=O)c1[nH]c(C2NC(=O)NC(C)=C2C(=O)Nc2ccc(Cl)cc2)c(C(=O)OCC)c1C (stereo not shown) [D7] is ____.
Result: 1.2446

Ask: # lookup: OD490 Mean of CCOC(=O)c1c(C2NC(=O)NC(C)=C2C(=O)Nc2ccccc2C)[nH]c(C(=O)OC)c1C (stereo not shown) [D2]
Result: 1.8524

Ask: Which value of OD490 Mean has been reported for CCOC(=O)c1c(C2NC(=O)NC(C)=C2C(=O)Nc2ccccc2)[nH]c(C(=O)OC)c1C (stereo not shown) [D10] in the records?
Result: 1.3759

Ask: I am curious: what OD490 Mean value has been reported for CCOC(=O)c1[nH]c(C2NC(=O)NC(C)=C2C(=O)Nc2ccccc2C)c(C(=O)OC)c1C (stereo not shown) [D4] ?
Result: 1.9335

Ask: // OD490 Mean lookup, key: CCOC(=O)c1c(C2NC(=O)NC(C)=C2C(=O)Nc2ccccc2OC)[nH]c(C(=O)OC)c1C (stereo not shown) [D1]
Result: 1.7953

Ask: Using the record for CCOC(=O)c1[nH]c(C2NC(=S)NC(C)=C2C(=O)OC)c(C(=O)OCC)c1C (stereo not shown) [D12] , report its OD490 Mean.
Result: 1.1142

Ask: Value lookup for OD490 Mean; key = CCOc1ccccc1C1NC(=S)NC(C)=C1C(=O)Nc1ccc(Cl)cc1 (stereo not shown) [C9]
Result: 1.7287

Ask: Need OD490 Mean, item COC(=O)c1[nH]c(C2NC(=S)NC(C)=C2C(=O)c2ccccc2)c(C(=O)OC)c1C (stereo not shown) [D14]
Result: 1.1342

Ask: What OD490 Mean value was documented for this molecule, CCOC(=O)C1=C(C)NC(=S)NC1c1cccc(O)c1 (stereo not shown) [Monastrol, monastrol, reference compound] ?
Result: 1.5184

Ask: Please look up its OD490 Mean: CCOC(=O)c1[nH]c(C2NC(=O)NC(C)=C2C(=O)Nc2ccccc2OC)c(C(=O)OC)c1C (stereo not shown) [D3]
Result: 1.8317

----------
# System: L929 cell line
# PROTOCOL DESCRIPTION: Cytotoxicity MTS assay, L929 cell line
# Assay type: cell-based
# COND: L929 cell line, 0.5μM, second assay
# Method: The positive compounds (IC50 < 100 μM) obtained from the primary Eg5 motor protein ATPase assay were tested for antiproliferative activity in vitro against Caco-2 cell line, Hela cell line, L929 cell line and T24 cell line by performing MTS assay. Cells were introduced into 96-well plates at a density of 1000 cells per well. After 24 h incubation, the cells were exposed with compounds at final concentrations ranging from 0.5 to 100 µM for 24 h. […]
MEASURED PARAMETER: OD490 values, Well 1
Answer as a number with no unit attached.

Ask: Missing value: OD490 values, Well 1, L929 cell line, entry CCOC(=O)c1[nH]c(C2NC(=S)NC(C)=C2C(=O)OC)c(C(=O)OCC)c1C (centres unmarked) . Fill in?
Result: 1.5380

Ask: Enter reported OD490 values, Well 1 observed with L929 cell line for CCOC(=O)c1[nH]c(C2NC(=O)NC(C)=C2C(=O)Nc2ccc(Cl)cc2)c(C(=O)OCC)c1C (centres unmarked)
Result: 1.6985

Ask: Test system L929 cell line; read-out OD490 values, Well 1; what value for CCOC(=O)c1c(C2NC(=O)NC(C)=C2C(=O)Nc2ccccc2OC)[nH]c(C(=O)OC)c1C (centres unmarked) [D1] ?
Result: 1.7354

Ask: Write down the reported OD490 values, Well 1 of CCOC(=O)c1[nH]c(C2NC(=O)NC(C)=C2C(=O)Nc2ccccc2C)c(C(=O)OC)c1C (centres unmarked) , test system: L929 cell line.
Result: 1.5847

Ask: Quick check: OD490 values, Well 1 on L929 cell line, item CCOc1ccccc1C1NC(=S)NC(C)=C1C(=O)Nc1ccc(Cl)cc1 (centres unmarked) ?
Result: 1.7956

----------
# System: Caco-2 cell line
# PROTOCOL DESCRIPTION: Cytotoxicity MTS assay, Caco-2 cell line
# Format: cell-based
# COND: 100μM; first assay; Caco-2 cell line
For each record, write down the corresponding OD490 Mean.

Ask: If you can, please state the reported OD490 Mean value of CCOC(=O)c1[nH]c(C2NC(=S)NC(C)=C2C(=O)OC)c(C(=O)OCC)c1C (stereo not shown) .
Result: 0.4236

Ask: So what does the record say about OD490 Mean for CCOC(=O)C1=C(C)NC(=S)NC1c1cccc(O)c1 (stereo not shown) [Monastrol, monastrol, reference compound] ?
Result: 0.4461

Ask: Consider the molecule shown here: CCOc1ccccc1C1NC(=S)NC(C)=C1C(=O)Nc1ccc(Cl)cc1 (stereo not shown) What is its recorded OD490 Mean?
Result: 0.3208

Ask: # input molecule: CCOC(=O)c1c(C2NC(=O)NC(C)=C2C(=O)Nc2ccccc2OC)[nH]c(C(=O)OC)c1C (stereo not shown) [D1] ; wanted: its OD490 Mean
Result: 0.5483

Ask: Given the entry COC(=O)c1[nH]c(C2NC(=S)NC(C)=C2C(=O)c2ccccc2)c(C(=O)OC)c1C (stereo not shown) , report its measured OD490 Mean.
Result: 0.4642

Ask: Consider the molecule shown here: CCOC(=O)c1[nH]c(C2NC(=O)NC(C)=C2C(=O)Nc2ccc(Cl)cc2)c(C(=O)OCC)c1C (stereo not shown) What is its recorded OD490 Mean?
Result: 0.3891

Ask: Data request, read-out OD490 Mean, for CCOC(=O)c1[nH]c(C2NC(=O)NC(C)=C2C(=O)Nc2ccccc2C)c(C(=O)OC)c1C (stereo not shown)
Result: 0.3850

Ask: Dear colleague, I am looking for the recorded OD490 Mean of the following molecule: CCOC(=O)c1c(C2NC(=O)NC(C)=C2C(=O)Nc2ccccc2C)[nH]c(C(=O)OC)c1C (stereo not shown) [D2]
Result: 0.4815

Ask: For CCOC(=O)c1c(C2NC(=O)NC(C)=C2C(=O)Nc2ccccc2)[nH]c(C(=O)OC)c1C (stereo not shown) , what is its reported OD490 Mean?
Result: 0.4342

Ask: Please look up its OD490 Mean: CCOC(=O)c1[nH]c(C2NC(=O)NC(C)=C2C(=O)Nc2ccccc2OC)c(C(=O)OC)c1C (stereo not shown)
Result: 0.5588
